- targetEntity: T1, human ASGR-1 mutant construct H203 (human, UniProt P07306 1-291)
- T1 construct: Arg/Glu scanning: non-arginine residues were changed to arginine; Transiently expressed on CHO-S cells
- T1 sequence: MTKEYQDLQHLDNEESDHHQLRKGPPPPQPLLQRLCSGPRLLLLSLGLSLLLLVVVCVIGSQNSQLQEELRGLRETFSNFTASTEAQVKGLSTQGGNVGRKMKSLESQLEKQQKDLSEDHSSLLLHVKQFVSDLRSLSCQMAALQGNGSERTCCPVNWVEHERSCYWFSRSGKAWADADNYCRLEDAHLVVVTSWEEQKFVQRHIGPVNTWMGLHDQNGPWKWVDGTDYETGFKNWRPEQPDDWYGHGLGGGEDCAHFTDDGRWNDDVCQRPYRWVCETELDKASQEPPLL
- assayOverview: FACS ratio: 65C12 geomean / this mAb geomean
The entries below come with measured Expression Normalization to mAb 65C12 values attached.

binder | Expression Normalization to mAb 65C12
25A4 (antibody, V domains shown, mAb) VH: QVLLVQSGAEVKRPGASVKVSCKASGYTFTNYDINWVRQATGQGLEWMGWMYPNSGNTGYAQKFQGRVTMTRNTSISTAYMELSSLRSEDTAVYYCASSSGWYYFDYWGQGTLVTVSS VL: DIVMTQFPDSLAVSLGERATIKCKSSQSVLYSSHNNNYLAWYQQKPGQPPKLLLYWASTRESGVPDRFSGSGSGTEFTLTISSLEAEDVAVYYCQQYYSTPPTFGQGTKVEIK | 1.29
4A2 (antibody, V domains shown, mAb) VH: QVQLVQSGTEVKKPGASVKVSCKASGYTFTNYDINWVRQATGQGLEWMGWMHPNSGNTGYAQKFQGRVTLTRNTSISTAYMELSSLRSEDTAVYYCASSSGWYYFDYWGQGTLVTVSS VL: DIVMTQSPDSLAVSLGERATINCKSSQSILHSSNNNNYLAWFQQKPGQPPKLLLYWASTRESGVPDRFSGSGSGTDFTLTISSLQPEDVAVYYCQQYYNTPVTFGPGTKVGIK | 1.36

Query (binder): 6G7 (antibody, V domains shown, mAb) VH: QVQLVESGGGVVQPGRSLRLSCAASGFTFSSYGMHWVRQTPGKGLEWVAIISYVGKNKYYADSVKGRFTISRDNSKNTLYLQMNSLRAEDTAVYYCARRGNSYGGYGMDVWGQGTTVTVSS VL: DIQMTQSPSSRSASVGDRVTITCQASQDISNYLNWCQQKPGKALKLLIYDASTLETGVPSRFSGSGSGTDFTFTISSVQPEDIATYYCQQYDNVPITFGQGTRLEIK ; field requested: Expression Normalization to mAb 65C12 1.71

Endpoint output: Expression Normalization to mAb 65C12 of 176H4 (antibody, V domains shown, mAb) VH: QVQLVESGGGVVQPGRSLRLSCAASGFTFSSYGMHWVRQAPGKGLEWVAIIWYDGSYKYYADSVKGRFTISRDNSKNTLYLQMSSLRAEDTAVYYCARDAHDFWSGYFAYWGQGALVTVSS VL: DIVMTQTPLSLSVTPGQPASISCKSSQSLLHGDGKTYLYWYLQKPGQPPQLLIYEVSNRFSGVPDRFSGSGSGTDFTLKISRVEAEDVGIYYCMQSIQIPWTFGQGTRVEIK . Value? 2.52
